The entries below are paired with their reported pKd.
Biological target: Human CD3εδ-Fc (human) (UniProt P04234)
Sequence (chain, as listed by the source mutant, chain 1 of 2): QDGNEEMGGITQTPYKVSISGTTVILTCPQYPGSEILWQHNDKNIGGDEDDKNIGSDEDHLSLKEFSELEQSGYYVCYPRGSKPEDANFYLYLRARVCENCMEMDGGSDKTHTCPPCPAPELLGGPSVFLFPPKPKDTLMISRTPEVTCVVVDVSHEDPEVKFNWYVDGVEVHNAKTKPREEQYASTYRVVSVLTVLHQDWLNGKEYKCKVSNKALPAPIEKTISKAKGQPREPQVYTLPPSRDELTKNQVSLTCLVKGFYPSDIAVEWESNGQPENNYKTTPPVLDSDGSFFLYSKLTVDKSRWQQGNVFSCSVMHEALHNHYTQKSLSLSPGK
Sequence (P04234 22-105, stated change not applied, chain 2 of 2): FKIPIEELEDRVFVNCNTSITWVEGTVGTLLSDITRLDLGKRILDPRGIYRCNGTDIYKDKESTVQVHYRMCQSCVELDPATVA
Assay: KD of scFv-Fc or IgG on human CD3εδ-Fc; instrument not given
Schema: pKd number; meaning minus log10 of the concentration expressed in molar units.

Reference set, count: 2
[
  {
    "binder": "ADI-45982 (antibody, V domains shown, also called Ab19) VH: QVQLVQSGAEVKKPGASVKVSCKASGFNIKDYYMHWVRQAPGQRLEWIGWIDLENANTVYDAKFQGRVTITRDTSASTAYMELSSLRSEDTAVYYCARDAYGRYFYDVWGQGTLVTVSS VL: DIVMTQSPDSLAVSLGERATINCKSSQSLLNARTGKNYLAWYQQKPGQPPKLLIYWASTRENGVPDRFSGSGSGTDFTLTISSLQAEDVAVYYCTQSYFRRTFGGGTKVEIK",
    "pKd": 9.92
  },
  {
    "binder": "ADI-46358 (antibody, V domains shown, also called Ab31) VH: QVQLVQSGAEVKKPGASVKVSCKASGFNIKDYYMHWVRQAPGQRLEWIGWIDLENANTVYDAKFQGRVTITRDTSASTAYMELSNLRSEDTAVYYCARDAYGRYFYDVWGQGTLVTVSS VL: DIVMTQSPDSLAVSLGERATINCKSSQSLLNARTGKNYLAWYQQKPGQPPKLLIYWASTRESGVPDRFSGSGSGTDFTLTISSLQAEDVAVYYCTQSYFRRTFGGGTKVEIK",
    "pKd": 9.00
  }
]

Challenge: Query pKd for ADI-46376 (antibody, V domains shown, also called Ab39) VH: QVQLVQSGAEVKKPGASVKVSCKASGFNIKDYYMHWVRQAPGQRLEWIGWIDLENANTVYDAKLQGRVTITRDTSASTAYMELSSLGSEDTAVYYCARDAYGRYFYDVWGQGTPVTVSS VL: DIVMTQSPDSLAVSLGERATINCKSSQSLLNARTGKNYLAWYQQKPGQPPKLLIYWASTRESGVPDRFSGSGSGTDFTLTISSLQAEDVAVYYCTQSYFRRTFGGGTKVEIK
Response given: 9.00
